All values here come from paper doi:10.1101/338061.

Overview of reported Kd across a group of binders:
biological target: MeCP2 MBD (Homo sapiens, UniProt P51608 80-164); assay: ITC
Sequence (P51608 80-164): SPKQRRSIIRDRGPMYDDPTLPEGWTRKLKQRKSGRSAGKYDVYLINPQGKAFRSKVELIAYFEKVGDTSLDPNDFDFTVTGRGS
Lab book: enter the figure in nM, no units written.

Below are worked cases with known answers.
Ask | # input binder: hmCG (dsDNA, 5hmC at position 6 of both strands) DNA 1: GCCAGCGCTGGC DNA 2: GCCAGCGCTGGC ; wanted: its Kd
Reply | 32000

Ask | # input binder: AmCGT (mCG) (dsDNA, 5mC at position 6 of both strands) DNA 1: GCCAACGTTGGC DNA 2: GCCAACGTTGGC ; wanted: its Kd
Reply | 1200

Proceeding to the next binder to report its Kd.
Ask | # input binder: mCG/TG (dsDNA, 5mC at position 6 of strand 1) DNA 1: GTCAACGTTACG DNA 2: CGTAATGTTGAC ; wanted: its Kd
Reply | 1200
